Experiment: LCMS analysis of drug release by tetrazines
Conditions: tetrazine 20 μM, TCO-MMAE 10 μM in PBS, 24 h
If the reported % MMAE released (24 h) equals or exceeds 40%, assign 1 (yes). If not, assign 0 (no).

The following compounds have reported results that may help.
Request: Please tell me: is the compound Cc1nnc(-c2cocn2)nn1 at or over 40% in terms of % MMAE released (24 h)?
Result: 1 (yes)

Request: Cc1nnc(-c2ccc(C(F)(F)F)c(CN)c2)nn1
Result: 1 (yes)

Request: Cc1nnc(-n2cccn2)nn1
Result: 0 (no)

Request: Cc1nnc(-c2ccccn2)nn1
Result: 0 (no)

Request: Cc1nnc(-c2ccc(CN)c(C(F)(F)F)c2)nn1
Result: 1 (yes)

Continuing:
Request: Please tell me: is the compound Cc1nnc(-c2ncccn2)nn1 at or over 40% in terms of % MMAE released (24 h)?
Result: 0 (no)
